System: TRPC4 beta (transient receptor potential cation channel C4), mouse
Assay: potentiation of DAMGO EC20 TRPC4 response – cell-based, Fluo-4, HEK293 TRPC4beta/mu-opioid, confirmation (AID 2555)
Conditions: DAMGO EC20, Fluo-4 calcium flux, at 10 µM
Active and inactive are the calls of the source.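 How the source made its calls: active means primary screen hit whose calcium fluorescence ratio, in both repeats, exceeds the weak agonist control mean by 3 SD; inactive means the rest.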
Respond with a class label; see active, inactive

Please review the entries below; each comes with its answer.
COMPOUND	TARGET UNDER TEST	CATEGORY LABEL
Nc1cc(C(F)(F)F)ccc1Nc1ccccc1	TRPC4 beta (transient receptor potential cation channel C4), mouse	inactive
COc1cc(/C=C2/SC(=O)NC2=O)ccc1OCc1ccccc1	TRPC4 beta (transient receptor potential cation channel C4), mouse	inactive
COc1ccc(CNc2ccc(Cl)cc2)cc1Cn1ccnc1	TRPC4 beta (transient receptor potential cation channel C4), mouse	inactive
O=C(CC1C(=O)NCCN1Cc1ccccc1C(F)(F)F)NCCc1ccccn1 (centres undefined)	TRPC4 beta (transient receptor potential cation channel C4), mouse	inactive
COc1ccc(NS(=O)(=O)c2csc(C(N)=O)c2)cc1OC	TRPC4 beta (transient receptor potential cation channel C4), mouse	inactive
Cc1ccccc1Cn1c(=N)n(CC(O)c2ccco2)c2ccccc21 (centres undefined)	TRPC4 beta (transient receptor potential cation channel C4), mouse	inactive
COc1ccc2c(C)cc(N3CCCCCC3)nc2c1	TRPC4 beta (transient receptor potential cation channel C4), mouse	inactive
CC1=NN(C(=O)COc2ccc(C)c(C)c2)C(O)(c2ccc(Cl)cc2)C1 (centres undefined)	TRPC4 beta (transient receptor potential cation channel C4), mouse	inactive
CNCc1c(OCc2ccccc2)ccc2ccccc12	TRPC4 beta (transient receptor potential cation channel C4), mouse	inactive
Cc1cc(N2CCOCC2)nc(NCc2ccccc2)n1	TRPC4 beta (transient receptor potential cation channel C4), mouse	inactive

-- ask Please indicate how the test categorized Cc1ccc(-n2nc(-c3cccs3)cc2C(=O)NCC2CCCO2)c(C)c1 (centres undefined) .
-- reply inactive

-- ask Write down the call the test reported for this compound. Item: COc1ccc(C(CNC(=O)C2CC2)N(C)C)cc1 (centres undefined)
-- reply inactive

-- ask // param item: "CCCN1CN(Cc2ccco2)c2nc3ccccc3n2C1" ; yields the recorded call
-- reply inactive

-- ask Outcome logged for "CCc1cc(OCCN(C)C)ccc1Cl" in this assay:
-- reply inactive

-- ask Kindly provide the recorded test outcome for the following compound: "Cc1cc(NCc2ccccc2)nc(N2CCOCC2)n1"
-- reply inactive

-- ask Outcome logged for COc1ccc(CCN2CCCC(CN(C)C(=O)c3ccoc3)C2)cc1 (centres undefined) in this assay:
-- reply inactive

Reference source for all entries: PubChem BioAssay
